target: 3CL^pro (SARS-CoV-2) (Severe acute respiratory syndrome coronavirus 2, UniProt P0DTD1); assay: biochemical; assay type: biochemical

>  <COMPOUND>
Oc1cc(O)cc(Oc2c(O)cc(O)c3c2Oc2c(O)cc(Oc4c(O)cc(Oc5c(O)cc(O)c6c5Oc5c(O)cc(O)cc5O6)cc4O)cc2O3)c1 [Dieckol]

>  <IC50>
5.49 µM

$$$$

* * *

biological target: PL^pro (SARS-CoV-2) (Severe acute respiratory syndrome coronavirus 2); experiment: biochemical; format: biochemical
pIC50: −log10 of the molar value.
MEASURED_METRIC: pIC50

>  <MOLECULE>
Oc1cc(O)cc(Oc2c(O)cc(O)c3c2Oc2c(O)cc(Oc4c(O)cc(Oc5c(O)cc(O)c6c5Oc5c(O)cc(O)cc5O6)cc4O)cc2O3)c1 [Dieckol]

>  <TEST_RESULT>
4.70

$$$$
